Overview of recorded solubility at 10 min for various molecules
Assay: Measurement of Solubility in Water

// worked examples, solubility at 10 min included
N=C(N)c1ccc2oc(CCc3cc4cc(C(=N)N)ccc4o3)cc2c1 [DABE, 1,2-bis(5-amidino-2-benzofuranyl)ethane, reference compound]; ≤ 5 mg/mL
Cl.Cl.N=C(N)c1ccc2oc(C(Cc3ccc(O[C@H]4CCNC4)cc3)C(=O)O)cc2c1 (stereo partly drawn); ≥ 600 mg/mL
Cl.Cl.N=C(N)c1ccc2sc(CC(C(=O)O)c3ccc(O[C@H]4CCNC4)cc3)cc2c1 (stereo partly drawn); ≥ 500 mg/mL
CC(=N)N1CCC[C@H]1COc1ccc(C(Cc2cc3cc(C(=N)N)ccc3s2)C(=O)O)cc1.Cl.Cl (stereo partly drawn); ≥ 400 mg/mL
CCn1c(CC(C(=O)O)c2ccc(O[C@H]3CCNC3)cc2)cc2ccc(C(=N)N)cc21.Cl.Cl (stereo partly drawn); ≥ 450 mg/mL
CC(=N)N1CCC(Oc2ccc(C(Cc3ccc4ccc(C(=N)N)cc4c3)C(=O)O)cc2)CC1.Cl.Cl (stereo not drawn); ≥ 350 mg/mL
CC(=N)N1CC[C@H](Oc2ccc(C(Cc3ccc4ccc(C(=N)N)cc4c3)C(=O)O)cc2)C1.Cl.O.O.O.O.O (single isomer, unassigned; (+)); ≥ 200 mg/mL
Cl.Cl.N=C(N)c1ccc2oc(CC(C(=O)O)c3ccc(O[C@H]4CCNC4)cc3)cc2c1 (stereo partly drawn); ≥ 450 mg/mL

API: the following record is the query input.
stdin: So what does the record say about solubility at 10 min for CC(=N)N1CC[C@H](Oc2ccc(C(CC(=O)O)Cc3cc4cc(C(=N)N)ccc4s3)cc2)C1.Cl.Cl (stereo partly drawn) ?
stdout: ≥ 450 mg/mL
